# System: COLO 205 colon
# experimental protocol: NCI-60 one-dose screen, 48 h
# measurement conditions: 10 µM unless noted
Compounds without any hit were thinned out: in the full panel of roughly 83,000, 20% have a hit. Active and inactive are the calls of the source. The calls were made as follows: active = growth percent below 10; inactive = the rest.
Outcome codes: yes (1) for active, no (0) for inactive

compound	label
COc1cccc(C2=NN(C(C)=O)C(c3cc(OC)c(OC)c(OC)c3)C2)c1 (stereo not given)	no (0)
CC[C@@H](C)/C=C(C)/C=C/C(=O)c1c(O)c(-c2ccc(O)cc2)cn(OC2CC(=O)CCC(C)OC(=O)CC2O)c1=O (stereo not given in full)	no (0)
Cc1cc(C(=O)Nc2ccc3cc(CN4CCOCC4)ccc3n2)c(C)n1-c1ccccc1	no (0)
COc1cccc(CCN2C(=O)CCC3=C2CCC3=O)c1	no (0)
COCCCNS(=O)(=O)c1ncnc2nc[nH]c12	no (0)
CN(C)CCCN=c1cc2c(=O)n(CCCN(C)C)c(=O)c3c(NCCCN(C)C)cc4c(O)n(CCCN(C)C)c(=O)c1c4c3-2	yes (1)
Fc1ccc(-c2nn3c(-c4cc(C(F)(F)F)cc(C(F)(F)F)c4)nnc3s2)cc1	no (0)
CN[C@@H]1C(OC2[C@H](O[C@H]3[C@H](O)[C@@H](O)[C@H](N=C(N)N)[C@@H](O)[C@@H]3N=C(N)N)OC(C)[C@]2(O)CO)OC(CO)C(O)C1O (stereo not given in full)	no (0)
COc1ccc2c(c1)sc1nc(-c3ccc(N(C)C)cc3)cn12	no (0)
CC1c2ccccc2-c2ccccc2N1C (stereo not given)	no (0)
O=C(Nc1ccccc1)c1cc(-n2cnc([N+](=O)[O-])c2)cc(-n2cnc([N+](=O)[O-])c2)n1	no (0)
CCOC(=O)C1C(=O)NC(C(=O)OCC)(C(=O)OCC)C1CC (stereo not given)	no (0)
CC(=O)N1N=C(c2ccc(Nc3nc(NCCO)nc(NCCO)n3)cc2)CC1c1ccc(Cl)cc1 (stereo not given)	no (0)
COc1ccc(C(=O)/C=C/c2ccc(C)cc2)cc1OC	no (0)
COC(=O)[C@H](Cc1cn(C)cn1)NC(=O)[C@H](C)NC(=O)Nc1cc(C(F)(F)F)cc(C(F)(F)F)c1	yes (1)
COC(=O)[C@H](Cc1cnc[nH]1)NC(=O)[C@@H](NC(=O)Nc1cc(C(F)(F)F)cc(C(F)(F)F)c1)C(C)C	yes (1)
Cc1cc(-c2ccccc2)cc(C)n1	no (0)
CCCCCCCCCCCCC1CCCC(C)C1 (stereo not given)	no (0)
C/C(=C\CCc1ccoc1)CC/C=C(\C)CCCN1CCSCC1	no (0)
COc1cc(C(=O)c2cc3c(cc2C)OCO3)cc(OC)c1OC	yes (1)

Where these numbers come from: PubChem BioAssay (NCI)
